Here the recorded MIC values is given for each entry.
Test system: Staphylococcus aureus ATCC 6538P
Experiment: In vitro antibacterial activity, MIC by agar dilution
Assay type: cell-based
Conditions: BHI agar, 35-37°C, 20-24 hours, unit assumed
Structures can show the parent of a compound that is named as a salt.
Supply the numeric figure in µg/mL, leaving out any unit text.

NC1CCN(c2nc3c(C4CC4)cc(C(=O)O)c(=O)n3cc2F)C1 (centres unmarked) [Example 157, hydrochloride salt] : 0.2

**Query** Endpoint output: MIC values of CC(C)(C)OC(=O)NC1CCN(c2nc3c(-c4ccc(F)cc4F)cc(C(=O)O)c(=O)n3cc2F)C1 (centres unmarked) . Value?
**Result** 0.2

**Query** Endpoint output: MIC values of CN1CCN(c2nc3c(-c4ccc(F)cc4)cc(C(=O)O)c(=O)n3cc2F)CC1 [Example 1] . Value?
**Result** 0.39

**Query** Endpoint output: MIC values of CC(=O)N[C@H]1C[C@H](C)N(c2nc3c(-c4ccc(F)cc4F)cc(C(=O)O)c(=O)n3cc2F)C1 . Value?
**Result** 0.1

**Query** Endpoint output: MIC values of C[C@H]1C[C@H](N)CN1c1nc2c(-c3ccc(F)cc3F)cc(C(=O)O)c(=O)n2cc1F [Example 171, hydrochloride] . Value?
**Result** 0.1

**Query** Endpoint output: MIC values of O=C(O)c1cc(C2CC2)c2nc(N3CCNCC3)c(F)cn2c1=O . Value?
**Result** 0.78

**Query** Endpoint output: MIC values of CCc1cc(C(=O)O)c(=O)n2ccc(N3CCC(N)C3)cc12.Cl (centres unmarked) . Value?
**Result** 3.1

**Query** Endpoint output: MIC values of O=C(O)c1cn(C2CC2)c2cc(N3CCNCC3)c(F)cc2c1=O [Cntl, Ciprofloxacin, reference compound] . Value?
**Result** 0.2
